molecular target: hPAOX (Homo sapiens (Human)); assay: Human PAOX assay (HyPerBlu chemiluminescent detection of hydrogen peroxide); details: 60 pM recombinant PAOX, 20 μM N-acetylspermine substrate
Sequence (Q6QHF9 whole entry): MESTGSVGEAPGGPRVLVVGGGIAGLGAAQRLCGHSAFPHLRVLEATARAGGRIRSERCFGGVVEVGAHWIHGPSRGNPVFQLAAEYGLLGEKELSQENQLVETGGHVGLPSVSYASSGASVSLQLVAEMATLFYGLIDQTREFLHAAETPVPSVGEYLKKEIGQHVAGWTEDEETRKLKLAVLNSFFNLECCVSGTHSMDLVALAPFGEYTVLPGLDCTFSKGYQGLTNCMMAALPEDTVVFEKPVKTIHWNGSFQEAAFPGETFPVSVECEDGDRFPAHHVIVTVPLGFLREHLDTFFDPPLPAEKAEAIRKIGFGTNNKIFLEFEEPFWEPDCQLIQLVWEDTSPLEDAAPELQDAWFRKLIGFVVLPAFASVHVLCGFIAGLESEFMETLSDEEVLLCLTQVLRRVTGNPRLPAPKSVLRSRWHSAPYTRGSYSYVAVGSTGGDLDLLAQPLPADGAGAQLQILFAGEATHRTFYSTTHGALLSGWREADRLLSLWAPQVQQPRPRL
IC50 for assorted compounds
The reply must contain the numeric value and, after it, the unit.

A selection of reference data follows.
In [3]: df
Out[3]:
                                   compound  readout_value
0  Cc1c(C(=O)NCC2(C)CCN(C)C2)nn2c(-c3ccccc3)cc(-c3ccccc3)nc12 (stereo not drawn) [Example 54]       30300 nM
1  O=C(NCCCn1ccnc1)c1cc2nc(-c3ccccc3)cc(C3CC3)n2n1 [Example 113]        2290 nM

Now take the following compound into account.
Problem: Entry CNCCCNC(=O)c1cc2nc(-c3ccccc3)cc(-c3ccccc3)n2n1 [Example 118] : reported IC50 = ?
Solution: 103 nM
